meta.source: ChEMBL document CHEMBL3769384

target: UniProt O95136; assay: Agonist activity at human S1P2 receptor expressed in Saccharomyces cerevisiae after 24 hrs by reporter gene assay
Sequence (O95136 whole entry): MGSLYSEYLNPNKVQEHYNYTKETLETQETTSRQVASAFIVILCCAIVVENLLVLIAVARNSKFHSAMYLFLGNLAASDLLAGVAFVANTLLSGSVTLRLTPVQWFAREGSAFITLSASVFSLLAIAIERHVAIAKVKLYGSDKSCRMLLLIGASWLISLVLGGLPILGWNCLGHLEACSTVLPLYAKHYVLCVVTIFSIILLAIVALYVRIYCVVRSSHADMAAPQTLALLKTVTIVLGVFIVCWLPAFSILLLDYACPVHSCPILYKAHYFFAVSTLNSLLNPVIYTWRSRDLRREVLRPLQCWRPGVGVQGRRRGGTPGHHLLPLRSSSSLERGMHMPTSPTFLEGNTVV
pEC50: −log10 of the molar value.
REPORTED_ENDPOINT: pEC50

Prompt: Answer with the recorded pEC50 for the compound listed here: Cc1c2c(nn1-c1nnc(-c3ccc(OC(C)C)c(Cl)c3)s1)CCN(CCC(=O)O)C2
Response: < 4.50

====

assay: Lipophilicity, log D of the compound at pH 10.5 by chromatography; format: physicochemical; details: buffer
REPORTED_ENDPOINT: chromatographic logD
Provide a numeric answer; units are not to be included.

Prompt: Assign chromatographic logD to the following record: Cc1c2c(nn1-c1nnc(-c3ccc(OC(C)C)c(Cl)c3)s1)CCN(CCC(=O)O)C2
Response: 1.53

====

system: Rattus norvegicus; test: Lymphopenia activity in oral dosed Lewis rat
REPORTED_ENDPOINT: IC50 (nM)
The reply should contain only the number, in nM.

Prompt: Look up and report measured IC50 for this entry: Cc1c2c(nn1-c1nnc(-c3ccc(OC(C)C)c(Cl)c3)s1)CCN(CCC(=O)O)C2
Response: 6

====

molecular target: Sphingosine 1-phosphate receptor 1 (Homo sapiens, UniProt P21453); assay: Agonist activity at human S1P1 receptor expressed in RH7777 cells by [35S]GTP-gammaS accumulation assay; assay type: cell-based
Sequence (P21453 whole entry): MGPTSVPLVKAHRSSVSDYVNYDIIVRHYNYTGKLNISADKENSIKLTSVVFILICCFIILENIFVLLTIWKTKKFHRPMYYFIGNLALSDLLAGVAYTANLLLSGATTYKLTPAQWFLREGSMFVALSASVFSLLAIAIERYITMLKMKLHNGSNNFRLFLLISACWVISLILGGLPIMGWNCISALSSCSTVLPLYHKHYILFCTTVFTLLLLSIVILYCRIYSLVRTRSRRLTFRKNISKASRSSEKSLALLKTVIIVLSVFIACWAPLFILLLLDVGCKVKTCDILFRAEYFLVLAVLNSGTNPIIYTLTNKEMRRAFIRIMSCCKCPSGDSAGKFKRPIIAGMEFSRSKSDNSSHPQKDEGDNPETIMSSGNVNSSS
pEC50: −log10 of the molar value.
// Not fulfilled strictly below 7 in pEC50; Fulfilled otherwise

CC(C)Oc1ccc(-c2nnc(-c3ccccc3)s2)cc1Cl ... Not fulfilled
CC(C)Oc1ccc(-c2nnc(-n3ncc4c3CCNC4)s2)cc1Cl ... Not fulfilled
CC(C)Oc1ccc(-c2nnc(-c3ccnn3C)s2)cc1Cl ... Not fulfilled
CC(C)Oc1ccc(-c2nnc(NCCN)s2)cc1Cl ... Not fulfilled

Prompt: Please check the record CC(C)Oc1ccc(-c2nnc(-n3cncn3)s2)cc1Cl and state if its pEC50 is at or above 7.
Response: Not fulfilled

Prompt: Does the reported pEC50 for CC(C)Oc1ccc(-c2nnc(-n3cc4c(n3)CCN(CCC(=O)O)C4)s2)cc1Cl fall at or above the 7 mark?
Response: Fulfilled

Prompt: Record CC(C)Oc1ccc(-c2nnc(N3CCC(N4CCCC(C(=O)O)C4)CC3)s2)cc1Cl (stereo unspecified) ; criterion: pEC50 no lower than 7. Met?
Response: Not fulfilled

Prompt: Evaluate Cc1c2c(nn1-c1nnc(-c3ccc(OC(C)C)c(Cl)c3)s1)CCN(CCC(=O)O)C2 : pEC50 at minimum 7?
Response: Fulfilled

====

biological target: UniProt O95977; assay: Agonist activity at human S1P4 receptor expressed in CHO-K1 cells by aequorin calcium accumulation assay; type: functional, cell-based
Sequence (O95977 whole entry): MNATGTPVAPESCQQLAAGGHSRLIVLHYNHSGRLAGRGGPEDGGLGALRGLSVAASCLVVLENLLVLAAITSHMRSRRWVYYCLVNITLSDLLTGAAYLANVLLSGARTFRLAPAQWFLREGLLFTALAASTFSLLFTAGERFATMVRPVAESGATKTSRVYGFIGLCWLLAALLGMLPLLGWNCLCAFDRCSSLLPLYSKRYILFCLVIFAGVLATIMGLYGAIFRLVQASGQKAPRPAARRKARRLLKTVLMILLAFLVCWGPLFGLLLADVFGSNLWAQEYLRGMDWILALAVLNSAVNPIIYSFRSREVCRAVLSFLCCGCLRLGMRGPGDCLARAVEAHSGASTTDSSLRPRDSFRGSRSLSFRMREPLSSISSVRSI
pEC50: −log10 of the molar value.
REPORTED_ENDPOINT: pEC50

Prompt: Fill in reported pEC50 for this entry: Cc1c2c(nn1-c1nnc(-c3ccc(OC(C)C)c(Cl)c3)s1)CCN(CCC(=O)O)C2
Response: < 4.40

====

test system: Hepatocyte; assay: Intrinsic clearance in human hepatocytes at 0.5 uM after 2 hrs by LC-MS/MS analysis; assay type: ADME, cell-based
REPORTED_ENDPOINT: CLH (mL/min/g)
Field: numeric (mL/min/g). Do not append units.

Prompt: Input Cc1c2c(nn1-c1nnc(-c3ccc(OC(C)C)c(Cl)c3)s1)CCN(CCC(=O)O)C2 , output reported CLH.
Response: 1.8
